Data origin: patent US20180016324A1

- TARGET OR SYSTEM: T1, ZIKV prM/E polyprotein on virus-like particles (VLPs) from HEK293T/17 cells (Zika virus, UniProt A0A024B7W1 123-795)
- T1 construct: also called ZIKV prM/E VLPs; Zika prM/E VLPs
- EXPERIMENTAL PROTOCOL: MSD ECL, VLPs on plate
ATTRIBUTE MEASURED: EC50 (pM)

* H2aM25709N (antibody, V domains shown) VH: EVQLVESGGGLVQPGGSLRLSCAASGFTVSSNYMSWVRQAPGKGLEWVSVIYSGGRTNYGDSVKGRFTISRDNSKNTLYLQMNSLRAEDTAVYYCARENYDFWSGDPYGWDVWGQGTTVTVSS VL: DIQMTQSPSSLSASVGDRVTITCRASQDISNYLAWFQQKPGKAPKSLIYGASSLQRGVPSKFSGSGSGTDFTLTISSLQPEDFATYYCQQYNSYPYTFGQGTKLEIK | 362
* H4H25591P (antibody, V domains shown) VH: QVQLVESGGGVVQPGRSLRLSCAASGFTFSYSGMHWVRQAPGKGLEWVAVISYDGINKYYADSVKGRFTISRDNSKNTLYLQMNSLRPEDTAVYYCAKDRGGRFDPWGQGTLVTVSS VL: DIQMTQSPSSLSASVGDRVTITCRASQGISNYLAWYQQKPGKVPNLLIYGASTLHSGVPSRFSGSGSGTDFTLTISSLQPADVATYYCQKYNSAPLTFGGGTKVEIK | 102
